SYSTEM_UNDER_TEST: T1, rat α-CGRP (1-37) (rat, C-terminal amide; N-terminal biotin when captured on the SA chip)
T1 construct: also called rat α (1-37); α-rat
T1 peptide: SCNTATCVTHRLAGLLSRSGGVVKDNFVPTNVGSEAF
EXPERIMENTAL_PROTOCOL: Biacore, 37°C, Fab over CGRP on SA chip
pKd: −log10 of the molar value.
Respond with YES for pKd values of 7 and above, NO for values below.

[
  {
    "BINDER": "G1 variant M38 Fab (Fab, V domains shown, Fab; constant domains as m1) VH: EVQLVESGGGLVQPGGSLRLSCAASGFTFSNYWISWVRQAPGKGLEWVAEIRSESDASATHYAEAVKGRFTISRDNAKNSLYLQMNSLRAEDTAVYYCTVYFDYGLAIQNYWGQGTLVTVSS VL: EIVLTQSPATLSLSPGERATLSCKASKNVWTYVSWYQQKPGQAPRLLIYGASNRYLGIPARFSGSGSGTDFTLTISSLEPEDFAVYYCSQSYNYPYTFGQGTKLEIK",
    "CLASS_NAME": "NO"
  },
  {
    "BINDER": "G1 variant M55 Fab (Fab, V domains shown, Fab; constant domains as m1) VH: EVQLVESGGGLVQPGGSLRLSCAASGFTFSNYWISWVRQAPGKGLEWVAEIRSKSDNEATHYADAVKGRFTISRDNAKNSLYLQMNSLRAEDTAVYYCTVYFDYGLAIQNYWGQGTLVTVSS VL: EIVLTQSPATLSLSPGERATLSCKASKNVATYVSWYQQKPGQAPRLLIYGASNRYSGIPARFSGSGSGTDFTLTISSLEPEDFAVYYCSQSYNYPYTFGQGTKLEIK",
    "CLASS_NAME": "NO"
  }
]

Note: attention shifts to another entry.
Q: State whether the measured pKd reaches 7, counting equality as reaching it, for G1 variant M8 Fab (Fab, V domains shown, Fab; constant domains as m1) VH: EVQLVESGGGLVQPGGSLRLSCAASGFTFSNYWISWVRQAPGKGLEWVAEIRSESDASATHYAEAVKGRFTISRDNAKNSLYLQMNSLRAEDTAVYYCNGYFDYGLAIQNYWGQGTLVTVSS VL: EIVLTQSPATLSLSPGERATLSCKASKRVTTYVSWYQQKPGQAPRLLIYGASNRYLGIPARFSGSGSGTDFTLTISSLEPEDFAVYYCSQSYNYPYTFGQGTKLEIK
A: YES

Measured values drawn from patent US20190071490A1 for this set.
